procedure.summary: recombinant barcode read abundance after kanamycin selection (control-corrected) (log10(CPM+1)); higher = more efficient recombination; sequences stand for … in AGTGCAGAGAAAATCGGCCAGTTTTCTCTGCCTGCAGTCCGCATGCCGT…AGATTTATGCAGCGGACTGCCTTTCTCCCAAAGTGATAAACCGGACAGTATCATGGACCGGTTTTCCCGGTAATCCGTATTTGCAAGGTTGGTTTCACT; site = the 11-nt target;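 also: IS621 recombinase and bridge RNA in Escherichia coli cells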
Outcome: 1 (yes) for recombinant barcode read abundance (log10) of at least 0.3; 0 (no) for anything lower.

Determine whether measured recombinant barcode read abundance (log10) meets or exceeds 0.3 for TAGCCTACTTGGGTTCTAACCTGTTGCGA (site TAGCCTACTCC)
1 (yes)

Determine whether measured recombinant barcode read abundance (log10) meets or exceeds 0.3 for CGGACGTCTTGGGTTCTAACCTGTTGCCT (site CGGACGGCTAG)
0 (no)

Determine whether measured recombinant barcode read abundance (log10) meets or exceeds 0.3 for TCGCGCTCTTGGGTTCTAACCTGTTGCTT (site TCGAACTCTAA)
0 (no)

Determine whether measured recombinant barcode read abundance (log10) meets or exceeds 0.3 for CAAACCGCTTGGGTTCTAACCTGTTGCCT (site CAAACCGCTAG)
1 (yes)

Determine whether measured recombinant barcode read abundance (log10) meets or exceeds 0.3 for CAACACTCTTGGGTTCTAACCTGTTGCCT (site CAACACTCTAG)
1 (yes)

Determine whether measured recombinant barcode read abundance (log10) meets or exceeds 0.3 for CCTAACACTTGGGTTCTAACCTGTTGCCT (site CCTAACACTAG)
1 (yes)

Determine whether measured recombinant barcode read abundance (log10) meets or exceeds 0.3 for ATTAGTGCTTGGGTTCTAACCTGTTGCCT (site AATAGTGCTAG)
1 (yes)

Determine whether measured recombinant barcode read abundance (log10) meets or exceeds 0.3 for AATTCGACTTGGGTTCTAACCTGTTGCCT (site AATTCGACTAG)
1 (yes)

Determine whether measured recombinant barcode read abundance (log10) meets or exceeds 0.3 for TTGACGACTTGGGTTCTAACCTGTTGCCA (site TTGACGACTTG)
1 (yes)

Determine whether measured recombinant barcode read abundance (log10) meets or exceeds 0.3 for CGGGGCACTTGGGTTCTAACCTGTTGCCT (site CGGGGCACTAG)
1 (yes)

Determine whether measured recombinant barcode read abundance (log10) meets or exceeds 0.3 for AACTGTCCTTGGGTTCTAACCTGTTGCAT (site AACTATCCTAT)
0 (no)

Determine whether measured recombinant barcode read abundance (log10) meets or exceeds 0.3 for TAGCCTACTTGGGTTCTAACCTGTTGCGT (site TAGCCTACTGC)
0 (no)

Determine whether measured recombinant barcode read abundance (log10) meets or exceeds 0.3 for GGGTCCACTTGGGTTCTAACCTGTTGCTT (site GGGTCCACTAT)
1 (yes)

Determine whether measured recombinant barcode read abundance (log10) meets or exceeds 0.3 for AAATGACCTTGGGTTCTAACCTGTTGCGT (site AAATGACCTAC)
1 (yes)

Determine whether measured recombinant barcode read abundance (log10) meets or exceeds 0.3 for CATAGGGCTTGGGTTCTAACCTGTTGCCG (site CATAGGGCTCG)
1 (yes)

Determine whether measured recombinant barcode read abundance (log10) meets or exceeds 0.3 for CCTTGCACTTGGGTTCTAACCTGTTGCGA (site CCTGGCACTTC)
0 (no)

Determine whether measured recombinant barcode read abundance (log10) meets or exceeds 0.3 for CAAGGTCCTTGGGTTCTAACCTGTTGCGG (site GTTACCTCTAG)
0 (no)

Determine whether measured recombinant barcode read abundance (log10) meets or exceeds 0.3 for CGAGGCCCTTGGGTTCTAACCTGTTGCTT (site GTCCTATCTGT)
0 (no)

Determine whether measured recombinant barcode read abundance (log10) meets or exceeds 0.3 for TACCGAGCTTGGGTTCTAACCTGTTGCTG (site CCTGTCACTTG)
1 (yes)

Determine whether measured recombinant barcode read abundance (log10) meets or exceeds 0.3 for CTAACTGCTTGGGTTCTAACCTGTTGCGT (site TCCCAAACTGT)
0 (no)

Determine whether measured recombinant barcode read abundance (log10) meets or exceeds 0.3 for GAGACTCCTTGGGTTCTAACCTGTTGCAC (site GAGACTCCTCT)
1 (yes)

Determine whether measured recombinant barcode read abundance (log10) meets or exceeds 0.3 for AGGGTACCTTGGGTTCTAACCTGTTGCAG (site AGGGTACCTCT)
1 (yes)

Determine whether measured recombinant barcode read abundance (log10) meets or exceeds 0.3 for TTCAAGACTTGGGTTCTAACCTGTTGCCT (site TTCAAGCCTAG)
0 (no)

Determine whether measured recombinant barcode read abundance (log10) meets or exceeds 0.3 for GTGAGCACTTGGGTTCTAACCTGTTGCTA (site GTGAGCACTTA)
1 (yes)

Determine whether measured recombinant barcode read abundance (log10) meets or exceeds 0.3 for GTCTACGCTTGGGTTCTAACCTGTTGCCA (site GTCTACGCTTG)
0 (no)

Determine whether measured recombinant barcode read abundance (log10) meets or exceeds 0.3 for GGGTTCGCTTGGGTTCTAACCTGTTGCCT (site GGGTTCCCTAG)
1 (yes)

Determine whether measured recombinant barcode read abundance (log10) meets or exceeds 0.3 for TTAGAGTCTTGGGTTCTAACCTGTTGCCT (site TTAGAGCCTAG)
1 (yes)

Determine whether measured recombinant barcode read abundance (log10) meets or exceeds 0.3 for TTGAGTGCTTGGGTTCTAACCTGTTGCCT (site TTGAGTGCTAG)
1 (yes)

Determine whether measured recombinant barcode read abundance (log10) meets or exceeds 0.3 for CAAACCGCTTGGGTTCTAACCTGTTGCCT (site CCAACCGCTAG)
0 (no)

Determine whether measured recombinant barcode read abundance (log10) meets or exceeds 0.3 for CCATGGTCTTGGGTTCTAACCTGTTGCTT (site CCATGGTCTAA)
1 (yes)

Determine whether measured recombinant barcode read abundance (log10) meets or exceeds 0.3 for TGGCAGCCTTGGGTTCTAACCTGTTGCCT (site TGGCAGTCTAG)
0 (no)

Determine whether measured recombinant barcode read abundance (log10) meets or exceeds 0.3 for GGAGATTCTTGGGTTCTAACCTGTTGCCT (site GGAGTTGCTAG)
0 (no)

Determine whether measured recombinant barcode read abundance (log10) meets or exceeds 0.3 for GACCGGGCTTGGGTTCTAACCTGTTGCCT (site GACCGAGCTAG)
0 (no)

Determine whether measured recombinant barcode read abundance (log10) meets or exceeds 0.3 for CAGCATACTTGGGTTCTAACCTGTTGCCT (site CAGCATACTAG)
1 (yes)

Determine whether measured recombinant barcode read abundance (log10) meets or exceeds 0.3 for CCGGTGACTTGGGTTCTAACCTGTTGCCT (site ACGGTGACTAG)
0 (no)

Determine whether measured recombinant barcode read abundance (log10) meets or exceeds 0.3 for CGGGGTTCTTGGGTTCTAACCTGTTGCCT (site CAGGGTTCTAG)
1 (yes)

Determine whether measured recombinant barcode read abundance (log10) meets or exceeds 0.3 for AATAGCTCTTGGGTTCTAACCTGTTGCCT (site GATAGCTCTAG)
0 (no)

Determine whether measured recombinant barcode read abundance (log10) meets or exceeds 0.3 for TAGTGAGCTTGGGTTCTAACCTGTTGCCT (site TCGTGAGCTAG)
0 (no)

Determine whether measured recombinant barcode read abundance (log10) meets or exceeds 0.3 for CTAGTGACTTGGGTTCTAACCTGTTGCGT (site CTAGTGACTAC)
1 (yes)

Determine whether measured recombinant barcode read abundance (log10) meets or exceeds 0.3 for TCATATACTTGGGTTCTAACCTGTTGCCT (site TCATATACTAG)
1 (yes)

Determine whether measured recombinant barcode read abundance (log10) meets or exceeds 0.3 for GAGTTTCCTTGGGTTCTAACCTGTTGCGT (site GAGTTTCCTAC)
1 (yes)

Determine whether measured recombinant barcode read abundance (log10) meets or exceeds 0.3 for CCGTCTACTTGGGTTCTAACCTGTTGCTT (site CCGTCTACTTA)
0 (no)

Reference source for all entries: the supplement of paper PMC11208160
